# measured-on: Avi-KRAS G12C (1-169) GppNHp/RAF1 RBD-3×FLAG (52-151) (Homo sapiens, UniProt P01116, G12C)
# Construct: Avi-KRAS G12C (1-169) GppNHp; Avi (N)
# Sequence (P01116 1-169 isoform P01116-2 G12C limits assumed): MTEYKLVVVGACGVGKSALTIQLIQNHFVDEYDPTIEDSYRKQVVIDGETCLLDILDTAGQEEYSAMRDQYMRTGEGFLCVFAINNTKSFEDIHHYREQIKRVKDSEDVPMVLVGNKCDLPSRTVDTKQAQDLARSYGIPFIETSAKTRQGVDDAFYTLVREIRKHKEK
# protocol-notes: Raf1 RBD-KRAS G12C-GppNHp disruption assay (protein:protein interaction HTRF)
IC50 listing for selected compounds.
observation-type: IC50

# compound, reported
rows = [
    ("C=CC(=O)N1CCC(N(CC)c2nc(OC[C@@]34CCCN3C[C@H](F)C4)nc3c(F)c(-c4ccc(F)c5sc(N)c(C#N)c45)c(C(F)(F)F)cc23)[C@H]1CC (some centres unmarked)", "< 500 nM"),
    ("C=CC(=O)N1CC[C@@H](N(CC)c2nc(OC[C@@]34CCCN3C[C@H](F)C4)nc3cc(-c4ccc(F)c5sc(N)c(C#N)c45)c(C#N)cc23)[C@@H]1CC", "500 to 5000 nM"),
    ("C=CC(=O)N1CC[C@@H](N(C)c2nc(OC[C@]34CCCN3C[C@H](F)C4)nc3c(F)c(-c4ccc(F)c5sc(N)c(C#N)c45)c(C(F)(F)F)cc23)[C@H]1C", "< 500 nM"),
    ("C=CC(=O)N1CC[C@@H](N(CC)c2nc(OC[C@@H]3CC4(CC4)CN3C)nc3c(F)c(-c4ccc(F)c5sc(N)c(C#N)c45)c(Cl)cc23)[C@H]1C [Compound 75]", "< 500 nM"),
    ("C=CC(=O)N1CC[C@@H](N(C)c2nc(OC[C@@H]3C[C@@H](OC)CN3CC)nc3c(F)c(-c4ccc(F)c5sc(N)c(C#N)c45)c(Cl)cc23)[C@H]1C", "< 500 nM"),
    ("C=CC(=O)N1CC2CC(C1)N2c1nc(OC[C@@]23CCCN2C[C@H](F)C3)nc2c(F)c(-c3ccc(F)c4sc(N)c(C#N)c34)c(C(F)(F)F)cc12", "500 to 5000 nM"),
    ("C=CC(=O)N1C[C@H](C)N(c2nc(OC[C@@]34CCCN3C[C@H](F)C4)nc3c(F)c(-c4ccc(F)c5sc(N)c(C#N)c45)c(Cl)cc23)C[C@H]1C (atropisomer, axis not shown) [Compound 103]", "5000 to 20000 nM"),
    ("C=CC(=O)N1CC[C@@H](N(CC)c2nc(OC[C@@]34CCCN3C[C@H](F)C4)nc3cc(-c4ccc(F)c5sc(N)c(C#N)c45)c(F)cc23)[C@H]1CC", "< 500 nM"),
    ("C=CC(=O)N1CC[C@@H](N(C)c2nc(OCC3(CN4CCOCC4)CC3)nc3c(F)c(-c4ccc(F)c5sc(N)c(C#N)c45)c(C(F)(F)F)cc23)[C@H]1C", "< 500 nM"),
    ("C=CC(=O)N1CC[C@@H](N(C)c2nc(OC[C@@]34CCCN3C[C@H](F)C4)nc3c(F)c(-c4ccc(F)c5sc(N)c(C#N)c45)ccc23)[C@@H]1C", "< 500 nM"),
    ("C=CC(=O)N1CC[C@@H](N(C)c2nc(OC[C@@H]3C[C@@H](F)CN3CC)nc3c(F)c(-c4ccc(F)c5sc(N)c(C#N)c45)c(Cl)cc23)[C@@H]1C", "< 500 nM"),
]
